QUANTITY: melting point (°C)

CC(=O)c1sc(-c2ccccc2)cc1NC(=O)NC(=O)c1cc(F)c(F)cc1Cl = 204.8
O=C(NC(=O)c1cc(F)c(F)cc1Cl)Nc1cc(-c2ccccc2)sc1C(=O)O = 226.5
O=C(NC(=O)c1cc(F)c(F)cc1Cl)Nc1cc(S(=O)(=O)N2CCCCC2)sc1N1CCC(C(=O)O)CC1 = 219.9
O=C(NC(=O)c1cc(F)c(F)cc1Cl)Nc1cc(-c2ccc(F)cc2)sc1C(=O)O = 227.7
O=C(NC(=O)c1ccc(F)cc1Cl)Nc1ccsc1-c1nnn[nH]1 = 219.8
O=C(NC(=O)c1cc(F)c(F)cc1Cl)Nc1ccsc1-c1n[nH]c(=O)o1 = 236.1
